Values were extracted from ChEMBL document CHEMBL1140346.

Result Type: pIC50
// pIC50 here means minus log10 of the molar concentration (mol/L)

Prompt: Record N#C[C@@H]1C[C@@H]2C[C@@H]2N1C(=O)[C@@H](N)C12CC3CC(CC(C3)C1)C2 : what is its pIC50 with Cytochrome P450 3A4 (Homo sapiens, UniProt P08684)?
Response: 4.70

====

# Tested Target: Dipeptidyl peptidase 4 (Rattus norvegicus)
# Assay Explanation: Ex vivo percent inhibition of Dipeptidyl peptidase IV in rat plasma after 4 hr at 4 umol/kg peroral dose
# Assay type: functional, cell-free
Can you tell me inhibition for the items I'm about to list?
Could you give me the number in %? Just the number is fine.

Prompt: Reported inhibition for CCC1([C@H](N)C(=O)N2[C@H](C#N)C[C@@H]3C[C@@H]32)CCCC1 : what is it?
Response: 44

Prompt: Reported inhibition for C=CC1([C@H](N)C(=O)N2[C@H](C#N)C[C@@H]3C[C@@H]32)CCC1 : what is it?
Response: 32

Prompt: Reported inhibition for CCC(C)(C)[C@H](N)C(=O)N1[C@H](C#N)C[C@@H]2C[C@@H]21 : what is it?
Response: 0

Prompt: Reported inhibition for C=CC(C)(C)[C@H](N)C(=O)N1[C@H](C#N)C[C@@H]2C[C@@H]21 : what is it?
Response: 10

Prompt: Reported inhibition for N#C[C@@H]1C[C@@H]2C[C@@H]2N1C(=O)[C@@H](N)C1(CO)CCCC1 : what is it?
Response: 56

Prompt: Reported inhibition for C=CC1([C@H](N)C(=O)N2[C@H](C#N)C[C@@H]3C[C@@H]32)CCCCCC1 : what is it?
Response: 66

Prompt: Reported inhibition for C=CC(CC)(CC)[C@H](N)C(=O)N1[C@H](C#N)C[C@@H]2C[C@@H]21 : what is it?
Response: 20

Prompt: Reported inhibition for N#C[C@@H]1C[C@@H]2C[C@@H]2N1C(=O)[C@@H](N)C1(CO)CCC1 : what is it?
Response: 17

Prompt: Reported inhibition for C=CC1([C@H](N)C(=O)N2[C@H](C#N)C[C@@H]3C[C@@H]32)CCCCC1 : what is it?
Response: 60

Prompt: Reported inhibition for N#C[C@@H]1C[C@@H]2C[C@@H]2N1C(=O)[C@@H](N)C1(CO)CCCCC1 : what is it?
Response: 8

Prompt: Reported inhibition for C=CC1([C@H](N)C(=O)N2[C@H](C#N)C[C@@H]3C[C@@H]32)CCCC1 : what is it?
Response: 64

====

# Assay Explanation: Half life in rat
# Assay type: ADME
# Settings: in vivo
Result Type: half-life (h)
Could you give me the number in h? Just the number is fine.

Prompt: Reported half-life for N#C[C@@H]1C[C@@H]2C[C@@H]2N1C(=O)[C@@H](N)C12CC3CC(CC(O)(C3)C1)C2 [SAXAGLIPTIN ANHYDROUS] : what is it?
Response: 2.1

====

Can you tell me inhibition for the items I'm about to list?
# Tested Target: Dipeptidyl peptidase 4 (Rattus norvegicus)
# Assay Explanation: Ex vivo percent inhibition of Dipeptidyl peptidase IV in rat plasma after 30 min at 4 umol/kg peroral dose
# Format: functional, cell-free
Could you give me the number in %? Just the number is fine.

Prompt: Reported inhibition for N#C[C@@H]1C[C@@H]2C[C@@H]2N1C(=O)[C@@H](N)C1(CO)CCCCC1 : what is it?
Response: 17

Prompt: Reported inhibition for C=CC1([C@H](N)C(=O)N2[C@H](C#N)C[C@@H]3C[C@@H]32)CCC1 : what is it?
Response: 42

Prompt: Reported inhibition for N#C[C@@H]1C[C@@H]2C[C@@H]2N1C(=O)[C@@H](N)C12CC3CC(CC(O)(C3)C1)C2 [SAXAGLIPTIN ANHYDROUS] : what is it?
Response: 87

Prompt: Reported inhibition for N#C[C@@H]1C[C@@H]2C[C@@H]2N1C(=O)[C@@H](N)C1(CO)CCCC1 : what is it?
Response: 69

Prompt: Reported inhibition for C=CC(CC)(CC)[C@H](N)C(=O)N1[C@H](C#N)C[C@@H]2C[C@@H]21 : what is it?
Response: 39

Prompt: Reported inhibition for N#C[C@@H]1C[C@@H]2C[C@@H]2N1C(=O)[C@@H](N)C12CC3CC(CC(C3)C1)C2 : what is it?
Response: 84

Prompt: Reported inhibition for C=CC1([C@H](N)C(=O)N2[C@H](C#N)C[C@@H]3C[C@@H]32)CCCCC1 : what is it?
Response: 76

Prompt: Reported inhibition for CCC(C)(C)[C@H](N)C(=O)N1[C@H](C#N)C[C@@H]2C[C@@H]21 : what is it?
Response: 0

Prompt: Reported inhibition for CCC1([C@H](N)C(=O)N2[C@H](C#N)C[C@@H]3C[C@@H]32)CCCC1 : what is it?
Response: 40

Prompt: Reported inhibition for N#C[C@@H]1C[C@@H]2C[C@@H]2N1C(=O)[C@@H](N)C1(CO)CCC1 : what is it?
Response: 36

Prompt: Reported inhibition for N#C[C@@H]1C[C@@H]2C[C@@H]2N1C(=O)[C@@H](N)C12CC3CC(CC(F)(C3)C1)C2 : what is it?
Response: 80

Prompt: Reported inhibition for C=CC1([C@H](N)C(=O)N2[C@H](C#N)C[C@@H]3C[C@@H]32)CCCC1 : what is it?
Response: 71

Prompt: Reported inhibition for C=CC1([C@H](N)C(=O)N2[C@H](C#N)C[C@@H]3C[C@@H]32)CCCCCC1 : what is it?
Response: 77

Prompt: Reported inhibition for N#C[C@@H]1C[C@@H]2C[C@@H]2N1C(=O)[C@@H](N)C12CC3CC(O)(CC(O)(C3)C1)C2 : what is it?
Response: 62

Prompt: Reported inhibition for C=CC(C)(C)[C@H](N)C(=O)N1[C@H](C#N)C[C@@H]2C[C@@H]21 : what is it?
Response: 13

====

# Assay Explanation: Oral bioavailability in rat
# Type: ADME, organism-based
# Settings: in vivo
Can you tell me bioavailability for the items I'm about to list?
# output: numeric value plus its unit

Prompt: Reported bioavailability for C=CC1([C@H](N)C(=O)N2[C@H](C#N)C[C@@H]3C[C@@H]32)CCCC1 : what is it?
Response: 5.3%

Prompt: Reported bioavailability for N#C[C@@H]1C[C@@H]2C[C@@H]2N1C(=O)[C@@H](N)C1(CO)CCCC1 : what is it?
Response: 59%

Prompt: Reported bioavailability for N#C[C@@H]1C[C@@H]2C[C@@H]2N1C(=O)[C@@H](N)C12CC3CC(CC(C3)C1)C2 : what is it?
Response: 2%

Prompt: Reported bioavailability for N#C[C@@H]1C[C@@H]2C[C@@H]2N1C(=O)[C@@H](N)C12CC3CC(CC(O)(C3)C1)C2 [SAXAGLIPTIN ANHYDROUS] : what is it?
Response: 75%

====

Can you tell me inhibition for the items I'm about to list?
# Tested Target: Dipeptidyl peptidase 4 (Rattus norvegicus) (UniProt P14740)
# Sequence (P14740 whole entry, looked up): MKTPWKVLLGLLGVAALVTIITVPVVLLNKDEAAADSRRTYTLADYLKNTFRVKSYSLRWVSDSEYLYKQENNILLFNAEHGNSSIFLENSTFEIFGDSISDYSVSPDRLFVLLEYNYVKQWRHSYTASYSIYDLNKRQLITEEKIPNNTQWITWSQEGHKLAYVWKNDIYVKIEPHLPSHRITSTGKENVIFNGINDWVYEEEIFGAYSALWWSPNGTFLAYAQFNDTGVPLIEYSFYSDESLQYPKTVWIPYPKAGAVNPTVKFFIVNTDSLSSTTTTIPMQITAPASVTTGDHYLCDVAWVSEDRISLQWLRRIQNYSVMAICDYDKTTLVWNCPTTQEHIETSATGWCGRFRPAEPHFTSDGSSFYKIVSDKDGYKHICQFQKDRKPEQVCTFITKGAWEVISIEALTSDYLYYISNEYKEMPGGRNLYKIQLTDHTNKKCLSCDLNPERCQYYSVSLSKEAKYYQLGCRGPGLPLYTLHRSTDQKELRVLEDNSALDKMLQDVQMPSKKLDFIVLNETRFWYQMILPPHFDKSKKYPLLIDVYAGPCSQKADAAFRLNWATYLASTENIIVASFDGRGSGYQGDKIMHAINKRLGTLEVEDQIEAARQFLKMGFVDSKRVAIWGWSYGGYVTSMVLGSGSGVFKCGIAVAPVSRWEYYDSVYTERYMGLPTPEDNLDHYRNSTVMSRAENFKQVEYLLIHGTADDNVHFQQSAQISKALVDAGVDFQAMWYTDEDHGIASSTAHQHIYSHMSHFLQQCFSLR
# Assay Explanation: Ex vivo Dipeptidyl peptidase IV inhibition in rat plasma after 4 hr 4 umol/kg peroral dose
# Assay type: functional, cell-free
Could you give me the number in %? Just the number is fine.

Prompt: Reported inhibition for N#C[C@@H]1C[C@@H]2C[C@@H]2N1C(=O)[C@@H](N)C12CC3CC(O)(CC(O)(C3)C1)C2 : what is it?
Response: 57

Prompt: Reported inhibition for N#C[C@@H]1C[C@@H]2C[C@@H]2N1C(=O)[C@@H](N)C12CC3CC(CC(C3)C1)C2 : what is it?
Response: 83

Prompt: Reported inhibition for N#C[C@@H]1C[C@@H]2C[C@@H]2N1C(=O)[C@@H](N)C12CC3CC(CC(O)(C3)C1)C2 [SAXAGLIPTIN ANHYDROUS] : what is it?
Response: 87

Prompt: Reported inhibition for N#C[C@@H]1C[C@@H]2C[C@@H]2N1C(=O)[C@@H](N)C12CC3CC(CC(F)(C3)C1)C2 : what is it?
Response: 61
